Tested on: E. coli
Assay: Antimicrobial MIC, agar cup diffusion
Format: cell-based
Details: Escherichia coli, read-out: MIC (minimum inhibitory concentration)
Non-standard residues stand in square brackets, D forms with d. Residues, ends and D or L forms follow the SMILES beside them. ξ: configuration not given here. *: point of attachment. Tos = Cc1ccc(S(=O)(=O)*)cc1; NHPh = c1ccc(N*)cc1; ξA = CC(N)C(=O)O
Exam item: assign yes to entries whose MIC is below 400 µg/mL and no to entries at or above 400 µg/mL. Note that a value of exactly 400 µg/mL receives no.

>  <compound>
Cc1ccc(S(=O)(=O)NC(C)C(=O)NCC(=O)Nc2ccccc2)cc1 (centres unmarked) [Compound 7m] (Tos-[ξA]-Gly-NHPh)

>  <cat>
yes

$$$$
>  <compound>
Cc1ccc(NC(=O)CNC(=O)C(C)NS(=O)(=O)c2ccccc2)cc1 (centres unmarked) [Compound 7e]

>  <cat>
no

$$$$
>  <compound>
O=C(O)c1cn(C2CC2)c2cc(N3CCNCC3)c(F)cc2c1=O [CIP, Ciprofloxacin, reference compound]

>  <cat>
yes

$$$$
>  <compound>
CC(NS(=O)(=O)c1ccccc1)C(=O)NCC(=O)Nc1ccc(Cl)cc1 (centres unmarked) [Compound 7b]

>  <cat>
no

$$$$
>  <compound>
Cc1ccc(S(=O)(=O)NC(C)C(=O)NCC(=O)Nc2ccc(F)cc2)cc1 (centres unmarked) [Compound 7k]

>  <cat>
yes

$$$$
>  <compound>
Cc1ccc(S(=O)(=O)NC(C)C(=O)NCC(=O)Nc2cccc(Cl)c2)cc1 (centres unmarked) [Compound 7h]

>  <cat>
yes

$$$$
>  <compound>
CC(NS(=O)(=O)c1ccccc1)C(=O)NCC(=O)Nc1cccc(F)c1 (centres unmarked) [Compound 7c]

>  <cat>
yes

$$$$
>  <compound>
Cc1ccc(NC(=O)CNC(=O)C(C)NS(=O)(=O)c2ccc(C)cc2)cc1 (centres unmarked) [Compound 7l]

>  <cat>
yes

$$$$

---

Examples of molecules with documented Albumin follow.
Experiment: Renal or kidney function test
Type: in vivo
Conditions: mice, 10 mg/kg, Before

>  <molecule>
Cc1ccc(S(=O)(=O)NC(C)C(=O)NCC(=O)Nc2cccc(F)c2)cc1 (stereo not shown)

>  <Albumin (g/dL)>
3.9

$$$$
>  <molecule>
Cc1ccc(S(=O)(=O)NC(C)C(=O)NCC(=O)Nc2cccc(Cl)c2)cc1 (stereo not shown)

>  <Albumin (g/dL)>
3.9

$$$$
>  <molecule>
CC(NS(=O)(=O)c1ccccc1)C(=O)NCC(=O)Nc1cccc(F)c1 (stereo not shown)

>  <Albumin (g/dL)>
3.5

$$$$
>  <molecule>
Cc1ccc(NC(=O)CNC(=O)C(C)NS(=O)(=O)c2ccccc2)cc1 (stereo not shown)

>  <Albumin (g/dL)>
4.1

$$$$

---

Examples of molecules with documented T.P. follow.
Assay: Liver function tests
Format: in vivo
Details: mice, 10 mg/kg, After
reportedEndpoint: T.P.

>  <molecule>
Cc1ccc(S(=O)(=O)NC(C)C(=O)NCC(=O)Nc2cccc(F)c2)cc1 (stereo not shown)

>  <reportedEndpoint>
T.P.

>  <result>
5.8 g/dL

$$$$
>  <molecule>
Cc1ccc(NC(=O)CNC(=O)C(C)NS(=O)(=O)c2ccccc2)cc1 (stereo not shown)

>  <reportedEndpoint>
T.P.

>  <result>
4.5 g/dL

$$$$
>  <molecule>
CC(NS(=O)(=O)c1ccccc1)C(=O)NCC(=O)Nc1cccc(F)c1 (stereo not shown)

>  <reportedEndpoint>
T.P.

>  <result>
5.5 g/dL

$$$$
>  <molecule>
Cc1ccc(S(=O)(=O)NC(C)C(=O)NCC(=O)Nc2cccc(Cl)c2)cc1 (stereo not shown)

>  <reportedEndpoint>
T.P.

>  <result>
5.5 g/dL

$$$$

---

Assay: Haematological analysis
Type: in vivo, mice
Details: Before treatment

>  <compound>
Cc1ccc(S(=O)(=O)NC(C)C(=O)NCC(=O)Nc2cccc(F)c2)cc1 (stereo not shown)

>  <PCV, %>
39

$$$$
>  <compound>
CC(NS(=O)(=O)c1ccccc1)C(=O)NCC(=O)Nc1cccc(F)c1 (stereo not shown)

>  <PCV, %>
38

$$$$
>  <compound>
Cc1ccc(NC(=O)CNC(=O)C(C)NS(=O)(=O)c2ccccc2)cc1 (stereo not shown)

>  <PCV, %>
36

$$$$
>  <compound>
Cc1ccc(S(=O)(=O)NC(C)C(=O)NCC(=O)Nc2cccc(Cl)c2)cc1 (stereo not shown)

>  <PCV, %>
39

$$$$

---

Experiment: Haematological analysis
Format: in vivo, mice
Conditions: After treatment
reportedEndpoint: RBC

>  <compound>
Cc1ccc(S(=O)(=O)NC(C)C(=O)NCC(=O)Nc2cccc(F)c2)cc1 (stereo not shown)

>  <result>
6.5 × 10^6 mm^3

$$$$
>  <compound>
Cc1ccc(NC(=O)CNC(=O)C(C)NS(=O)(=O)c2ccccc2)cc1 (stereo not shown)

>  <result>
6.0 × 10^6 mm^3

$$$$
>  <compound>
Cc1ccc(S(=O)(=O)NC(C)C(=O)NCC(=O)Nc2cccc(Cl)c2)cc1 (stereo not shown)

>  <result>
5.9 × 10^6 mm^3

$$$$
>  <compound>
CC(NS(=O)(=O)c1ccccc1)C(=O)NCC(=O)Nc1cccc(F)c1 (stereo not shown)

>  <result>
6.0 × 10^6 mm^3

$$$$

---

Assay: Liver function tests
Type: in vivo
Settings: mice, 10 mg/kg, Before
reportedEndpoint: ALT

>  <compound>
CC(NS(=O)(=O)c1ccccc1)C(=O)NCC(=O)Nc1cccc(F)c1 (stereo not shown) [Compound 7c]

>  <reportedEndpoint>
ALT

>  <result>
20.5 µ/L

$$$$
>  <compound>
Cc1ccc(NC(=O)CNC(=O)C(C)NS(=O)(=O)c2ccccc2)cc1 (stereo not shown) [Compound 7e]

>  <reportedEndpoint>
ALT

>  <result>
24.0 µ/L

$$$$
>  <compound>
Cc1ccc(S(=O)(=O)NC(C)C(=O)NCC(=O)Nc2cccc(Cl)c2)cc1 (stereo not shown) [Compound 7h]

>  <reportedEndpoint>
ALT

>  <result>
25.4 µ/L

$$$$
>  <compound>
Cc1ccc(S(=O)(=O)NC(C)C(=O)NCC(=O)Nc2cccc(F)c2)cc1 (stereo not shown) [Compound 7j]

>  <reportedEndpoint>
ALT

>  <result>
26.3 µ/L

$$$$

---

Examples of compounds with documented HB follow.
Assay: Haematological analysis
Format: in vivo, mice
Conditions: After treatment

>  <compound>
CC(NS(=O)(=O)c1ccccc1)C(=O)NCC(=O)Nc1cccc(F)c1 (stereo not shown)

>  <unitAnnotation>
g/dL

>  <HB>
9.8

$$$$
>  <compound>
Cc1ccc(S(=O)(=O)NC(C)C(=O)NCC(=O)Nc2cccc(Cl)c2)cc1 (stereo not shown)

>  <unitAnnotation>
g/dL

>  <HB>
10.0

$$$$
>  <compound>
Cc1ccc(NC(=O)CNC(=O)C(C)NS(=O)(=O)c2ccccc2)cc1 (stereo not shown)

>  <unitAnnotation>
g/dL

>  <HB>
11.0

$$$$
>  <compound>
Cc1ccc(S(=O)(=O)NC(C)C(=O)NCC(=O)Nc2cccc(F)c2)cc1 (stereo not shown)

>  <unitAnnotation>
g/dL

>  <HB>
10.0

$$$$

---

Experiment: Haematological analysis
Type: in vivo, mice
Conditions: After treatment
Examples of molecules with documented WBC follow.

>  <molecule>
Cc1ccc(S(=O)(=O)NC(C)C(=O)NCC(=O)Nc2cccc(F)c2)cc1 (stereo not shown)

>  <WBC>
9.1 × 10^3 mm^3

$$$$
>  <molecule>
Cc1ccc(S(=O)(=O)NC(C)C(=O)NCC(=O)Nc2cccc(Cl)c2)cc1 (stereo not shown)

>  <WBC>
9.3 × 10^3 mm^3

$$$$
>  <molecule>
CC(NS(=O)(=O)c1ccccc1)C(=O)NCC(=O)Nc1cccc(F)c1 (stereo not shown)

>  <WBC>
9.0 × 10^3 mm^3

$$$$
>  <molecule>
Cc1ccc(NC(=O)CNC(=O)C(C)NS(=O)(=O)c2ccccc2)cc1 (stereo not shown)

>  <WBC>
10.5 × 10^3 mm^3

$$$$

---

Assay: Haematological analysis
Format: in vivo, mice
Conditions: After treatment
reportedEndpoint: PCV (%)

>  <compound>
CC(NS(=O)(=O)c1ccccc1)C(=O)NCC(=O)Nc1cccc(F)c1 (stereo not shown)

>  <reportedEndpoint>
PCV

>  <resultNumber>
33

$$$$
>  <compound>
Cc1ccc(S(=O)(=O)NC(C)C(=O)NCC(=O)Nc2cccc(Cl)c2)cc1 (stereo not shown)

>  <reportedEndpoint>
PCV

>  <resultNumber>
34

$$$$
>  <compound>
Cc1ccc(NC(=O)CNC(=O)C(C)NS(=O)(=O)c2ccccc2)cc1 (stereo not shown)

>  <reportedEndpoint>
PCV

>  <resultNumber>
35

$$$$
>  <compound>
Cc1ccc(S(=O)(=O)NC(C)C(=O)NCC(=O)Nc2cccc(F)c2)cc1 (stereo not shown)

>  <reportedEndpoint>
PCV

>  <resultNumber>
34

$$$$

---

Assay: Liver function tests
Type: in vivo
Details: mice, 10 mg/kg, Before
reportedEndpoint: Bilirubin (mg/dL)

>  <molecule>
Cc1ccc(S(=O)(=O)NC(C)C(=O)NCC(=O)Nc2cccc(F)c2)cc1 (stereo not shown)

>  <resultNumber>
0.4

$$$$
>  <molecule>
CC(NS(=O)(=O)c1ccccc1)C(=O)NCC(=O)Nc1cccc(F)c1 (stereo not shown)

>  <resultNumber>
0.3

$$$$
>  <molecule>
Cc1ccc(NC(=O)CNC(=O)C(C)NS(=O)(=O)c2ccccc2)cc1 (stereo not shown)

>  <resultNumber>
0.3

$$$$
>  <molecule>
Cc1ccc(S(=O)(=O)NC(C)C(=O)NCC(=O)Nc2cccc(Cl)c2)cc1 (stereo not shown)

>  <resultNumber>
0.4

$$$$

All figures here come from paper PMC6713104.
